Sourced from patent US20230131899A1

Tested system: human α-synuclein (Homo sapiens)
Construct: the full-length gene for untagged human α-synuclein was inserted; made in house; host or cells: E. coli BL21(DE3), plasmid derived from pT7 or pET11a
Assay text: Cell-free Thioflavin T assay of α-synuclein aggregation (αSyn ThT Assay)
Format: biochemical
Assay context: mean % inhibition of αSyn aggregation relative to DMSO control; αSyn 50 μM; compounds at 100 μM; read-out: αSyn ThT Assay % Inhibition
Response key: fulfilled means inhibition at 100 µM >= 30%; not fulfilled means inhibition at 100 µM < 30%.

>  <Compound>
Nc1c(Cc2ccc(N)c3ccccc23)c(-c2cccc(C(F)(F)F)c2)c2n(c1=O)C(C(=O)O)CNS2(=O)=O (stereo not drawn)

>  <Group>
not fulfilled

$$$$
>  <Compound>
O=C(O)C1CN(C[C@H](O)[C@@H](O)[C@H](O)[C@H](O)CO)S(=O)(=O)c2c(-c3cccc(C(F)(F)F)c3)c(Cc3cccc4ccccc34)cc(=O)n21 (mixture of isomers)

>  <Group>
not fulfilled

$$$$
>  <Compound>
Cn1c(=O)c2c(nc(CCCCCCN3CC(C(=O)O)n4c(c(-c5cccc(C(F)(F)F)c5)c(Cc5cccc6ccccc56)cc4=O)S3(=O)=O)n2C)n(C)c1=O (stereo not drawn)

>  <Group>
not fulfilled

$$$$
>  <Compound>
O=C(O)C1CN(CCCO)S(=O)(=O)c2c(-c3cccc(C(F)(F)F)c3)c(Cc3cccc4ccccc34)cc(=O)n21 (stereo not drawn)

>  <Group>
fulfilled

$$$$
>  <Compound>
O=C(O)[C@H]1CS(=O)(=O)c2c(-c3cccc(C(F)(F)F)c3)c(Cc3cccc4ccccc34)cc(=O)n21 (single isomer, unassigned) [Compound 010b]

>  <Group>
fulfilled

$$$$
>  <Compound>
CCCN1CC(C(=O)O)n2c(c(-c3cccc(C(F)(F)F)c3)c(Cc3cccc4ccccc34)cc2=O)S1(=O)=O (racemic) [Compound 016]

>  <Group>
fulfilled

$$$$
>  <Compound>
Cc1c(Cc2cccc3ccccc23)c(-c2cccc(C(F)(F)F)c2)c2n(c1=O)C(C(=O)O)CN(C)S2(=O)=O (stereo not drawn)

>  <Group>
fulfilled

$$$$
>  <Compound>
CCN1CC(C(=O)O)n2c(c(-c3cccc(C(F)(F)F)c3)c(Cc3cccc4ccccc34)cc2=O)S1(=O)=O (single isomer, unassigned) [Compound 015a]

>  <Group>
fulfilled

$$$$
>  <Compound>
CCc1c(Cc2cccc3ccccc23)c(-c2cccc(C(F)(F)F)c2)c2n(c1=O)C(C(=O)O)CN(C1CCCCC1)S2(=O)=O (stereo not drawn)

>  <Group>
fulfilled

$$$$
>  <Compound>
CC1(C)Sc2c(-c3cccc(C(F)(F)F)c3)c(Cc3cccc4ccccc34)nc(=O)n2C1C(=O)O (stereo not drawn)

>  <Group>
fulfilled

$$$$
>  <Compound>
O=C(O)C1CSc2c(-c3cccc(C(F)(F)F)c3)c(Cc3cccc4ccccc34)cc(=S)n21 (stereo not drawn)

>  <Group>
fulfilled

$$$$
>  <Compound>
Nc1c(Cc2cccc3ccccc23)c(-c2cccc(C(F)(F)F)c2)c2n(c1=O)C(C(=O)O)CS2(=O)=O (stereo not drawn)

>  <Group>
not fulfilled

$$$$
>  <Compound>
C=CCCN1CC(C(=O)O)n2c(c(-c3cccc(C(F)(F)F)c3)c(Cc3cccc4ccccc34)cc2=O)S1(=O)=O (stereo not drawn)

>  <Group>
fulfilled

$$$$
>  <Compound>
CN1CC(C(=O)O)n2c(c(-c3cccc(C(F)(F)F)c3)c(Cc3cccc4ccccc34)c(N)c2=O)S1(=O)=O (stereo not drawn)

>  <Group>
fulfilled

$$$$
>  <Compound>
CN1CC(C(=O)O)n2c(c(-c3cccc(C(F)(F)F)c3)c(Cc3cccc4ccccc34)cc2=O)S1(=O)=O (single isomer, unassigned) [Compound 008a]

>  <Group>
not fulfilled

$$$$
>  <Compound>
CN1CC(C(=O)O)n2c(c(-c3cccc(C(F)(F)F)c3)c(Cc3ccc(NS(C)(=O)=O)c4ccccc34)cc2=O)S1(=O)=O (stereo not drawn)

>  <Group>
fulfilled

$$$$
>  <Compound>
O=C(O)C1CN(CCCCCCN2CC(C(=O)O)n3c(c(-c4cccc(C(F)(F)F)c4)c(Cc4cccc5ccccc45)cc3=O)S2(=O)=O)S(=O)(=O)c2c(-c3cccc(C(F)(F)F)c3)c(Cc3cccc4ccccc34)cc(=O)n21 (racemic)

>  <Group>
fulfilled

$$$$
>  <Compound>
Cn1c(=O)c2c(nc(CCCCCCCN3CC(C(=O)O)n4c(c(-c5cccc(C(F)(F)F)c5)c(Cc5cccc6ccccc56)cc4=O)S3(=O)=O)n2C)n(C)c1=O (stereo not drawn)

>  <Group>
not fulfilled

$$$$
>  <Compound>
O=C(O)CCCN1CC(C(=O)O)n2c(c(-c3cccc(C(F)(F)F)c3)c(Cc3cccc4ccccc34)cc2=O)S1(=O)=O (stereo not drawn)

>  <Group>
not fulfilled

$$$$
>  <Compound>
O=C(O)C1CS(=O)(=O)c2c(-c3cccc(C(F)(F)F)c3)c(Cc3cccc4ccccc34)cc(=S)n21 (racemic) [Compound 014]

>  <Group>
fulfilled

$$$$
>  <Compound>
CN1CC(C(N)=O)n2c(c(-c3cccc(C(F)(F)F)c3)c(Cc3cccc4ccccc34)cc2=O)S1(=O)=O (stereo not drawn)

>  <Group>
not fulfilled

$$$$
>  <Compound>
O=C(O)[C@@H]1CS(=O)(=O)c2c(-c3cccc(C(F)(F)F)c3)c(Cc3cccc4ccccc34)cc(=O)n21 (single isomer, unassigned) [Compound 010a]

>  <Group>
fulfilled

$$$$
>  <Compound>
Cn1c(=O)c2c(nc(CCCCN3CC(C(=O)O)n4c(c(-c5cccc(C(F)(F)F)c5)c(Cc5cccc6ccccc56)cc4=O)S3(=O)=O)n2C)n(C)c1=O (stereo not drawn)

>  <Group>
not fulfilled

$$$$
>  <Compound>
CCCN1CC(C(=O)O)n2c(c(-c3cccc(C(F)(F)F)c3)c(Cc3cccc4ccccc34)c(NC3CCCC3)c2=O)S1(=O)=O (stereo not drawn)

>  <Group>
fulfilled

$$$$
